Catalogue of sequences with associated pIC50
Biological target: HLA-A*2601 (Homo sapiens, UniProt P04439, A114D/A173T/A270S/D101N/D185E/E277Q/E87N/F33Y/G231S/I121R/I218V/K168Q/L180W/L300P/L318F/P208A/P217A/Q86R/Q94H/R138Q/S129P/T187R/T323A/T345S/V100A/V358M)
Test: biochemical
Assay type: binding
Ends that are not written are not given here.
Please report pIC50 as the negative decimal logarithm of the molar concentration, giving only the number.

1) YSHGTGTGY [PB1.30] : 8.30

Now take the following sequence into account.
Inquiry: So what's the measured pIC50 for this one? LVSDGGPNLY [PB1.590]
Reply text: 6.81
